Where do these numbers come from? They come from patent US20240094229A1.

target: TetR (Escherichia coli, UniProt P04483); construct: His tag; made in house; host or cells: E. coli BL21 Star (DE3); assay: TetR biosensor, Cas12a cleavage reaction with fluorescence readout, detection of aTc and Doxy; assay type: biochemical; conditions: EC:50, 5 nM dsDNA, 500 nM TF (TetR), 24 nt gRNA, 1 h
Sequence (P04483 whole entry): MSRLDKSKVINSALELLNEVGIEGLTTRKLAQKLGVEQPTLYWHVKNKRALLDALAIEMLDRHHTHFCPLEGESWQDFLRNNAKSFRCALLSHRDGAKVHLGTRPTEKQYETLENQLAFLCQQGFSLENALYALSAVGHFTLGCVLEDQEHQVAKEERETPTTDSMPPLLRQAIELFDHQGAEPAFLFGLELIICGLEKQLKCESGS
pEC50: −log10 of the molar value. Structures can show the parent of a compound that is named as a salt.

| compound | pEC50 |
| --- | --- |
| Cc1c2c(c(O)c3c(O)cccc13)C(=O)[C@]1(O)C(=O)C(C(N)=O)=C(O)[C@@H](N(C)C)[C@@H]1C2 [aTc, anhydrotetracycline-HCl] | 7.30 |

* * *

Each entry below carries its recorded pEC50.
target: TetR (Escherichia coli, UniProt P04483); construct: His tag; made in house; host or cells: E. coli BL21 Star (DE3); assay: TetR biosensor, Cas12a cleavage reaction with fluorescence readout, detection of aTc and Doxy; assay type: biochemical; conditions: EC:50, 50 nM dsDNA, 5 μM TF (TetR), 24 nt gRNA, 1 h
pEC50: −log10 of the molar value. Structures can show the parent of a compound that is named as a salt.

| compound | measurement.target | pEC50 |
| --- | --- | --- |
| Cc1c2c(c(O)c3c(O)cccc13)C(=O)[C@]1(O)C(=O)C(C(N)=O)=C(O)[C@@H](N(C)C)[C@@H]1C2 [aTc, anhydrotetracycline-HCl] | TetR (Escherichia coli, UniProt P04483) | 5.75 |
| C[C@H]1c2cccc(O)c2C(=O)C2=C(O)[C@]3(O)C(=O)C(C(N)=O)=C(O)[C@@H](N(C)C)[C@@H]3[C@@H](O)[C@@H]21 | TetR (Escherichia coli, UniProt P04483) | 5.80 |

* * *

target: TetR (Escherichia coli); construct: His tag; made in house; host or cells: E. coli BL21 Star (DE3); assay: TetR biosensor, Cas12a cleavage reaction with fluorescence readout, detection of aTc and Doxy; assay type: biochemical; conditions: EC:50, 100 nM dsDNA, 20 μM TF (TetR), 1 h
Structures can show the parent of a compound that is named as a salt.

| compound | EC50, µM |
| --- | --- |
| Cc1c2c(c(O)c3c(O)cccc13)C(=O)[C@]1(O)C(=O)C(C(N)=O)=C(O)[C@@H](N(C)C)[C@@H]1C2 [aTc, anhydrotetracycline-HCl] | 10.6 |

* * *

Each entry below carries its recorded pEC50.
molecular target: TetR (Escherichia coli, UniProt P04483); construct: His tag; made in house; host or cells: E. coli BL21 Star (DE3); assay: TetR biosensor, Cas12a cleavage reaction with fluorescence readout, detection of aTc and Doxy; assay type: biochemical; details: EC:50, 50 nM dsDNA, 5 μM TF (TetR), 20 nt gRNA, 30 minutes of cleavage
pEC50: −log10 of the molar value. Where a name gives a salt, the structure may show the parent alone.
quantity.measured: pEC50

| compound | endpoint.value |
| --- | --- |
| C[C@H]1c2cccc(O)c2C(=O)C2=C(O)[C@]3(O)C(=O)C(C(N)=O)=C(O)[C@@H](N(C)C)[C@@H]3[C@@H](O)[C@@H]21 | 6.37 |
| Cc1c2c(c(O)c3c(O)cccc13)C(=O)[C@]1(O)C(=O)C(C(N)=O)=C(O)[C@@H](N(C)C)[C@@H]1C2 [aTc, anhydrotetracycline-HCl] | 5.82 |
